Data origin, for the record: the supplement of paper PMC9170038

Provide the recorded apparent KD of K4 kissing-loop reporter for the entries that follow.
- Test system: K4 kissing-loop RNA reporter;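 also: bound reporter read as fluorescence of individual clusters on recovered sequencing chips by microscopy, with normalized cluster intensities fitted with a binding model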
- ASSAY NAME: apparent KD of K4 kissing-loop reporter; higher = weaker reporter binding
- EXPERIMENTAL PARAMETERS: Eterna round: R107; input ligand: tryptophan 2.4 mM
Answer with a number only, understood to be in µM.

IN: Provide value of apparent KD of K4 kissing-loop reporter for this record tested with K4 kissing-loop RNA reporter: GGUUUAUAGGAGGAUACCAGUACAAAUAAAGUACAUUAAUAGUAGAGUGAUGUUCUAAAGUACCCUUGGCAGCUUAGAUUAAGUU [ExTheophylB.G]
OUT: 0.0764

IN: And GCAGUGAUGUUGCGCAGGUACAGUGGAGUGCGAGGACCGGUACGGCCGCCACUCGUACAGAACUAGCUAAUGUAUGGAUAGGUGA [#11 K4 Tryptophan A Same State] ?
OUT: 0.312

IN: And `ACCAUUUUACCGGCAGUAGUGAUGUUACUCCGAGGACCGGUACGGCCGCCACUCGCGAACGUAGGGUCGCGCACUCAAAGAGUGC` ?
OUT: 0.0897

IN: And UAACGACUCGGAAGGAGCGCGGUUUUAAAAGACUAAGGCCGAGUGAUGUUCGGAGAAGUCCCGCAGGUAGGUCGCCGGGUUGUGG [Ceororedar] ?
OUT: 0.148

IN: And ACUUGCACAAAGUCGUCAACCGGUGAAUCAAAGGAUAUUAAUUCACUAAGAAGGUUGAGCCGAGUGAUGUUCGACUGUAAGUCCC [theeternabot_exclusion_KL_FMN_A_34] ?
OUT: 0.348

IN: And AUAGACUUGCAGUGAUGUUGCAAGUGAGACUAGGAUAUCAGGAAGCUGAGAAGGAGUCAUCUCCUUCAGACAUCACUAUGAAGGA [whbob_SS_FMNA__2th180] ?
OUT: 0.221

IN: And UGACAUUGCUCAGAUACCAGACAAGAGGAUCACCCUUGUGCCAAAACGUACUAAAUAAAUGUCCCUUGGCAGCUGAGCAAUGUCU [TheoBX 13] ?
OUT: 0.0586

IN: And `AAGGGCGAGGUAACGUGGAUAUCUCGUCGCAAGGAUAUCUGGAAACAGAGAAGGUGCUACAUUACCGGCAGUGAUGUUGCUGACC` ?
OUT: 0.261

IN: And CCUAUCUCAUACGAUACCAGUCCGAGUGAUGUUCGAAAAUAAAUAAAUUUGCCAUAUAAUGACCCUUGGCAGCGUAUGGGAUAGG [Ex Theophylline B K4 11] ?
OUT: 0.3

IN: And AGUGGUGUAUCUUUUAAGAGUGAUGUUUUUCGAGGACCGGUACGGCCGCCACUCGAGUGAUGAGUGCGUCGUUGUGGUGAUUAGU [#14 K4 Tryptophan A Exclusion] ?
OUT: 0.262

IN: And UAUAUACAUUUAUUAAUUAAAGGUUCAGAAGGAGCGUGAAUUAACACAGGUAGGUCGCUGAGCGAGUGAUGUUCGCUAUAUGGUA [JR_ExcArginiA_Sub005] ?
OUT: 0.0557

IN: And UGUAUGUGUCAGCGAGUGAUGUUCGACGAUACCAGACUCGAUAGAGUCCCUUGGCAGCGUAAUGCAUGCCAAACUGGCACAUACU [#SwitchBubble 13 #K4Early] ?
OUT: 0.6

IN: And CGCAGUGAUGUUGCGAGUAGCUACAGGGAAGGAGCGCGCUAGUGCGCAGGUAGGUCGCCCACGCAGUGAUGUUGCGUCAUAGGGU [Exclusion Arg A GF8] ?
OUT: 0.109

IN: And UGCACGUAGUGAUGUUACAGCAAGUUUAUGAAGGAUAUGAGGUUAGUCAGAAGGUCAGCCGUCUCGUUGUAAGCACCUUAUCAUU [theeternabot_exclusion_KL_FMN_A_14] ?
OUT: 0.155

IN: And AGGUCCGAGCCUGCAAAGGCUCGGACCUGUUAGGAUAUGACGUUAUUCAGAAGGGAUGGGUGGAGUGAUGUUCCACCCGCAAGGG [#2 Same State - FMN A Attempt #7 (HarryS)] ?
OUT: 0.113

IN: And UUGUUUGGUUGAGAGGUUGGGCGAAAUGAUACCAGUAUAUAAGAAUACCCUUGGCAGCAUAAGAAAGAUAUAGUGAUGUUGUAUA [SSTheophA.L] ?
OUT: 0.411

IN: And UGUCAUUGGUCUGAUACCAGUUGAUGACGAAUACGUCAACUGGAGUGAUGUUCCUAAAACAACCCUUGGCAGCAGACCGAUGACU [TheoBS 1 #SwitchBubble #StaticStem] ?
OUT: 0.564

IN: And CACCGCAACUGAAGGAGCGCGCCAGUGAUGUUGGACGGCUUUGUCAAGGAAACUGCACCGGUGCAGGUAGGUCGCAGUUCGCGGC [Ededisa] ?
OUT: 0.259

IN: And AAAACGCUGUGAAUAACACAGCGAAAUUCGCGAGGACCGGUACGGCCGCCACUCGCUAACUGCGAGUGAUGUUCGAUAAUAAAAU [Mat - Mod of OpenEnded 3 - D3] ?
OUT: 0.104

IN: And AAACGUUGGUCGGAUACCAGUUAGACCGAUAAGGUCAAAACUGGAGUGAUGUUCCCAAAUAACCCUUGGCAGCCGACCGACGAAA [MAT - Same State Theophlline B - Mod of Eli - D12] ?
OUT: 0.213
